- Tested on: SW480
- measurement protocol: Antiproliferative activity against human SW480 cells assessed as inhibition of cell growth incubated for 72 hrs by SRB assay
- Type: functional, cell-based
- assay conditions: SW480, 72 h
Reported pIC50 values are given for each entry in this list.
As a rule, pIC50 stands for the negative log10 of the concentration, concentration in M.

compound: COc1cc([C@@H]2c3cc4c(cc3[C@@H](O[C@@H]3O[C@@H]5CO[C@@H](C)O[C@H]5[C@H](O)[C@H]3O)[C@H]3COC(=O)[C@H]23)OCO4)cc(OC)c1O [ETOPOSIDE]
endpoint value: 5.95

# next compound below
Query :: Tell me reported pIC50 for CCCCCCCCC[C@@H](O)CC(=O)N[C@@H](CC(N)=O)C(=O)N[C@@H](CCC(N)=O)C(=O)N[C@H](CC(=O)c1cc(C)cc(O)c1C(=O)c1c(O)cccc1O)CC(C)C , tested with SW480.
Result :: 5.63
